Test system: Male Wistar rats (Charles River)
experimental details: Hole-Board Test, head-dipping activity
Format: in vivo
conditions used: Rattus norvegicus, po, 1 h, p.o., one hour before testing, from head-dipping activity, read-out: Minimum effective dose (mg/kg, p.o.)
metric name: minimal effective dose (mg/kg)
Just the number in mg/kg, nothing appended.

Below, each entry is followed by its recorded minimal effective dose result.
COc1ccc(C=Cc2nccc3cc(OC)c(OC)cc23)cc1 : 0.01
FC(F)(F)c1ccc(C=Cc2nccc3cc4c(cc23)OCO4)cc1 : 0.0001
CN1C(=O)CN=C(c2ccccc2)c2cc(Cl)ccc21 [Diazepam, reference compound] : 0.1

Okay, now this compound:
Complete the entry with minimal effective dose for COc1cc2ccnc(C=Cc3ccc(C(F)(F)F)cc3)c2cc1OC
0.0001

###

minimal effective dose values by entry
Tested on: Male Wistar rats
experimental details: Vogel Test (Lick Conflict Test), anxiolytic activity
Format: in vivo
conditions used: Rattus norvegicus, po, 1 h, p.o., one hour before testing, read-out: Minimum effective dose (mg/kg, p.o.)
Just the number in mg/kg, nothing appended.

Below, each entry is followed by its recorded minimal effective dose result.
COc1cc2ccnc(C=Cc3ccc(F)cc3)c2cc1OC : 0.0003
COc1cc2cc(C)nc(C=Cc3ccc([N+](=O)[O-])cc3)c2cc1OC : 0.01
COc1cc2cc(C)nc(C=Cc3ccc(C#N)cc3)c2c(OC)c1OC : 0.01
COc1cc2ccnc(C=Cc3ccc(C(F)(F)F)cc3)c2cc1OC : 0.01

Complete the entry with minimal effective dose for FC(F)(F)c1ccc(C=Cc2nccc3cc4c(cc23)OCO4)cc1
1e-05

Complete the entry with minimal effective dose for CN1C(=O)CN=C(c2ccccc2)c2cc(Cl)ccc21 [Diazepam, reference compound]
0.1

Complete the entry with minimal effective dose for COc1ccc(C=Cc2nccc3cc(OC)c(OC)cc23)cc1
0.03
